biological target: human PAD4 (Homo sapiens (Human), UniProt Q9UM07); experiment: In Vitro PAD4 BAEE Biochemical Assay; conditions: recombinant PAD4 5 nM, 2 mM calcium chloride, 3 mM BAEE substrate; geometric mean of multiple experiments
Sequence (Q9UM07 2-663): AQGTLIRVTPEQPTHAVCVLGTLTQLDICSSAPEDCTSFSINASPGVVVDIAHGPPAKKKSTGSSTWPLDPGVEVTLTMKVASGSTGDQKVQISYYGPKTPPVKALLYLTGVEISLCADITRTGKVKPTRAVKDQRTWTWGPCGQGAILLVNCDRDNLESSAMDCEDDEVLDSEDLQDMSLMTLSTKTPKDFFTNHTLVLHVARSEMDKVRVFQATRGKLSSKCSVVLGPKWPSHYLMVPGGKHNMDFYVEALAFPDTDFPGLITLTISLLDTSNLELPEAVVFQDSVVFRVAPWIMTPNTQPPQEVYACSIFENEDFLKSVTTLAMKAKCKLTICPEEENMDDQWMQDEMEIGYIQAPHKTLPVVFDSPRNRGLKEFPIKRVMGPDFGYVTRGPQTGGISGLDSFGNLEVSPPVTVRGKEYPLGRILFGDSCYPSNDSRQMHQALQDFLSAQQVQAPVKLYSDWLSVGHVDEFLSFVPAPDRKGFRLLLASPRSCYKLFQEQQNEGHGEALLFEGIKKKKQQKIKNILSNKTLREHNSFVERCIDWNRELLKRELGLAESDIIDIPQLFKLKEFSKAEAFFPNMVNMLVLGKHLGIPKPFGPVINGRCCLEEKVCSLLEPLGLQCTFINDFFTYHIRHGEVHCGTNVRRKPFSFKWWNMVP
observed property: IC50 (µM)

COc1cc(C(=O)N2C[C@H](N)[C@@H]3CC[C@H]2C3)cc2nc(-c3cc4ccc([C@@H](C)NC(=O)c5cccnc5C(F)(F)F)nc4n3CC3CC3)n(C)c12 [Example 306] | 0.0928

(1) COc1cc(C(=O)N2C[C@H](N)[C@@H]3CC[C@H]2C3)cc2nc(-c3cc4ccc([C@@H](C)NC(=O)c5ccnc(C(F)(F)F)n5)nc4n3CC3CC3)n(C)c12 [Example 316]
(2) COc1cc(C(=O)N2C[C@H](N)[C@@H]3CC[C@H]2C3)cc2nc(-c3cc4ccc([C@@H](C)NC(=O)C5(F)CC5)nc4n3CC3CC3)n(C)c12 [Example 326]
Challenge: Returns: the label, 1 or 2 , whose recorded IC50 is the lower number. Return value: the label identifying the chosen record.
Response given: 2
(2: 0.103 µM, 1: 0.57 µM)

* * *

Molecular target: human PAD4 (Homo sapiens (Human))
Assay: In Vitro PAD4 BAEE Biochemical Assay
Conditions: human PAD4, BAEE substrate; 5 nM PAD4, 2 mM calcium chloride, 3 mM BAEE; geometric mean of multiple experiments
Description: The PCR product was ligated into linearized pET-SUMO vector (Invitrogen, Carlsbad, CA), which is part of the Champion™ pET SUMO Protein Expression System. […] The enzymatic activity of human PAD4 was monitored in a biochemical assay in the presence or absence of compounds using the small peptidyl arginine mimic BAEE (Nα-Benzoyl-L-arginine ethyl ester hydrochloride) as substrate. […] Levels of ammonia were monitored by using an amine coupling reaction and were indicative of PAD4 enzymatic activity. […]
pIC50: −log10 of the molar value.
observed property: pIC50

Use these answered entries as a reference point.
COc1cc(C(=O)N2[C@H]3CC[C@@H]2[C@H](N)C3)cc2nc(-c3cc4ccc([C@@H](C)NC(C)=O)nc4n3CC3CC3)n(C)c12 | 7.34
COc1cc(C(=O)N2CCC[C@@H](N)C2)cc2nc(-c3cc4ccc(N(C)S(C)(=O)=O)nc4n3CC3CC3)n(CC3CC3)c12 | 6.90
COc1cc(C(=O)N2C[C@H](N)CCN2C)cc2nc(-c3cc4ccc(C(C)(C)O)nc4n3CC3CC3)n(C)c12 | 6.64
COc1cc(C(=O)N2[C@H]3CC[C@@H]2[C@H](N)C3)cc2nc(-c3cc4ccc([C@@H](C)NC(=O)C(C)(C)C)nc4n3CC3CC3)n(C)c12 | 7.22

(a) CS(=O)(=O)N(c1ccc2cc(-c3nc4cc(C(=O)N5C[C@H]6CC[C@@H]5[C@@H]6N)ccc4n3C3CC3)n(CC3CC3)c2n1)C(F)F
(b) COc1cc(C(=O)N[C@@H]2CNC[C@H]2NC(=O)CCCN(C)C)cc2nc(-c3cc4ccc(N(C(F)F)S(C)(=O)=O)nc4n3CC3CC3)n(C)c12
Challenge: Pick one: a or b . Which has the bigger pIC50 number? Answer = label.
Response given: a
(a: 7.05, b: 4.30)

* * *

target: UniProt:Q9UM07; assay: In Vitro PAD4 BAEE Biochemical Assay; details: human PAD4, BAEE substrate; 5 nM PAD4, 2 mM calcium chloride, 3 mM BAEE; geometric mean of multiple experiments
observed property: IC50 (µM)

COc1cc(C(=O)N2C[C@H](N)CCN2C)cc2nc(-c3cc4ccc([C@@H](C)NC(=O)c5c(C)cccc5C(F)(F)F)nc4n3CC3CC3)n(C)c12 | 0.204
Cc1cc2c(cc1C(=O)N1CCC[C@@H](N)C1)nc(-c1cc3ccc(N(C(F)F)S(C)(=O)=O)nc3n1CC1CC1)n2C1CC1 | 2.21
COc1cc(C(=O)N2[C@H]3CC[C@@H]2[C@H](N)C3)cc2nc(-c3cc4ccc([C@@H](C)NC(=O)c5cnn(C(F)F)c5)nc4n3CC3CC3)n(C)c12 | 0.0797
COc1cc(C(=O)N2CCC[C@@H](N)C2)cc2nc(-c3cc4ccc([C@@H](C)NC(=O)C56CC(F)(C5)C6)c(F)c4n3CC3CC3)n(C)c12 | 0.502
COc1cc(C(=O)N2[C@H]3CC[C@@H]2[C@H](N)C3)cc2nc(-c3cc4ccc([C@@H](C)NC(=O)C5(C(F)(F)F)CC5)nc4n3CC3CC3)n(C)c12 | 0.24

(a) COc1cc(C(=O)N2C[C@H](N)CCN2C)cc2nc(-c3cc4ccc([C@@H](C)NC(=O)C(C)(C)C)nc4n3CC3CC3)n(C)c12
(b) COc1cc(C(=O)N2CCC[C@@H](N)[C@H]2C)cc2nc(-c3cc4ccc(N(C5CC5)S(C)(=O)=O)nc4n3CC3CC3)n(C)c12
(c) COc1cc(C(=O)N2CCC[C@@H](N)C2)cc2nc(-c3cc4ccc(N5CCCNS5(=O)=O)nc4n3CC3CC3)n(C)c12
Challenge: Sort the 3 molecules by IC50; largest first, smallest last. In your reply, arrange the labels in the requested order.
Response given: c, b, a

(1) COc1cc(C(=O)N2CCC[C@@H](N)C2)cc2nc(-c3cc4ccc(NC(C)(C)C)nc4n3CC3CC3)n(C)c12
(2) COc1cc(C(=O)N2C[C@H](N)CC[C@@H]2C)cc2nc(-c3cc4ccc(N5CCCC5=O)nc4n3CC3CC3)n(C)c12
Challenge: Please indicate which has the smaller reported IC50: 1 , or 2 . Answer by stating the label of the chosen item.
Response given: 2
(2: 1.18 µM, 1: 9.34 µM)

* * *

target: human PAD4 (Homo sapiens (Human)); experiment: In Vitro PAD4 BAEE Biochemical Assay; details: recombinant PAD4 5 nM, 2 mM calcium chloride, 3 mM BAEE substrate; geometric mean of multiple experiments
observed property: IC50 (nM)

C[C@@H](NC(=O)c1ccc(C(F)F)nc1)c1ccc2cc(-c3nc4cc(C(=O)N5C[C@H](N)[C@@H]6CC[C@H]5C6)cc(F)c4n3C3CC3)n(CC3CC3)c2n1 | 89.7
COc1cc(C(=O)N2C[C@H](N)[C@@H]3CC[C@H]2C3)cc2nc(-c3cc4ccc([C@@H](C)NC(=O)C56CC(C5)C6)nc4n3CC3CC3)n(C)c12 | 79.2

(A) COc1cc(C(=O)N2C[C@H](N)[C@@H]3CC[C@H]2C3)cc2nc(-c3cc4ccc([C@@H](C)NC(=O)c5cnc(C(F)(F)F)cn5)nc4n3CC3CC3)n(C)c12
(B) COc1cc(C(=O)N2C[C@H](N)[C@@H]3CC[C@H]2C3)cc2nc(-c3cc4ccc([C@@H](C)NC(=O)C(C)(C)OC)nc4n3CC3CC3)n(C)c12
(C) C[C@@H](NC(=O)C1CCOCC1)c1ccc2cc(-c3nc4cc(C(=O)N5C[C@H](N)[C@@H]6CC[C@H]5C6)cc(F)c4n3C3CC3)n(CC3CC3)c2n1
Challenge: Hey, quick one: sort these by IC50, low to high? Write the labels in rank order as requested.
Response given: C, B, A
(C: 48.6 nM, B: 72 nM, A: 252 nM)

* * *

target: human PAD4 (Homo sapiens (Human), UniProt Q9UM07); experiment: In Vitro PAD4 BAEE Biochemical Assay; conditions: human PAD4, BAEE substrate; 5 nM PAD4, 2 mM calcium chloride, 3 mM BAEE; geometric mean of multiple experiments
observed property: IC50 (nM)

Worked set:
COc1cc(C(=O)N2[C@H]3CC[C@@H]2[C@H](N)C3)cc2nc(-c3cc4ccc([C@@H](C)NC(=O)Cn5cccn5)nc4n3CC3CC3)n(C)c12 [Example 174] | 45.1
COc1cc(C(=O)N2C[C@H](N)[C@@H]3CC[C@H]2C3)cc2nc(-c3cc4ccc([C@@H](C)NC(=O)C(C)(C)C)nc4n3CC3CC3)n(C)c12 [Example 221] | 61
COc1cc(C(=O)N2C[C@H](N)CCN2C)cc2nc(-c3cc4ccc([C@@H](C)NC(=O)c5ccccc5)nc4n3CC3CC3)n(C)c12 [Example 154] | 89.7

(A) COC(=O)N(C)c1ccc2cc(-c3nc4cc(C(=O)N5CCC[C@@H](N)C5)cc(OC)c4n3C)n(CC3CC3)c2n1 [Example 109]
(B) COc1cc(C(=O)N2C[C@H](N)CC[C@@H]2C)cc2nc(-c3cc4ccc(-c5cccnc5-c5cncs5)nc4n3CC3CC3)n(C)c12 [Example 267]
Challenge: Sort A and B by IC50 descending and give the first. Write down the label of the entry you select.
Response given: A
(A: 401 nM, B: 138 nM)

(a) COc1cc(C(=O)N2CCC[C@@H](N)C2)cc2nc(-c3cc4ccc(N(C(F)F)S(=O)(=O)C5CC5)nc4n3CC3CC3)n(C)c12 [Example 27]
(b) COc1cc(C(=O)N2C[C@H](N)CCN2C)cc2nc(-c3cc4ccc([C@@H](C)NC(=O)c5nc(C)ccc5C)nc4n3CC3CC3)n(C)c12 [Example 176]
Challenge: When the recorded IC50 values are compared, which is smaller: that of a or that of b ? Select an item and report its label.
Response given: a

All values here come from patent US11878965B2.
